The origin of these recorded values is patent US11731967B2.

# Tested on: recombinant PHD-bromodomain module of TRIM33
# ASSAY NOTES: AlphaScreen binding assay, TRIM33 with biotinylated H3K9me3K18ac peptide
# TEST PARAMETERS: compounds shown in Table 2a
OBSERVATION TYPE: Ratio of TRIM24 IC50 over TRIM33 IC50

Below, each entry is followed by its recorded Ratio of TRIM24 IC50 over TRIM33 IC50 result.
smi=COCCNc1c(-c2nc[nH]c2C)nc2ccc(Br)cn12 system="recombinant PHD-bromodomain module of TRIM33" reported=3.62
smi=Cc1[nH]cnc1-c1nc2cnccn2c1NC1CCCCC1 system="recombinant PHD-bromodomain module of TRIM33" reported=0.78
smi=COCCNc1c(-c2c[nH]c(C)n2)nc2cnccn12 system="recombinant PHD-bromodomain module of TRIM33" reported=321.31
smi=CCCOc1ccn2c(C(C)=O)cc(-c3nc4ccc(C(=O)OC)cn4c3NC3CCCCC3)c2c1 system="recombinant PHD-bromodomain module of TRIM33" reported=7.82
smi=COc1ccc(CCNc2c(-c3ccc4nccn4c3)nc3ccccn23)cc1OC system="recombinant PHD-bromodomain module of TRIM33" reported=60.92

(I) Brc1ccc2nc(-c3ccc4nccn4c3)c(NC3CCCCC3)n2c1
(II) COCCNc1c(-c2nc[nH]c2C)nc2ccc(C(=O)OC)cn12
### Prompt When I and II are compared, which has the higher number for Ratio of TRIM24 IC50 over TRIM33 IC50? Indicate your choice by writing its label.
### Response II
